- assay details: xn = mol fraction of the nth substance listed
- applied conditions: 323.15 K; 100 kPa; Liquid; Single path-length method; x1 = 0.25
quantity measured: speed of sound (m/s)
Answers are plain numbers, in m/s.

Field: speed of sound. Fill in for each record below.
1. CCCC[N+](CCCC)(CCCC)Cc1ccccc1.[Cl-] [benzyltributylammonium chloride] + OCCO
2. CCCC[N+](CCCC)(CCCC)Cc1ccccc1.[Cl-] [benzyltributylammonium chloride] + OCC(O)CO
3. CCCC[N+](CCCC)(CCCC)Cc1ccccc1.[Cl-] [benzyltributylammonium chloride] + OCCOCCO
4. C[N+](C)(C)Cc1ccccc1.[Cl-] [trimethylbenzylammonium chloride] + OCC(O)CO
5. C[N+](C)(C)Cc1ccccc1.[Cl-] [trimethylbenzylammonium chloride] + OCCOCCO
6. C[N+](C)(C)Cc1ccccc1.[Cl-] [trimethylbenzylammonium chloride] + OCCOCCOCCO
7. C[N+](C)(C)Cc1ccccc1.[Cl-] [trimethylbenzylammonium chloride] + OCCO

[1605.2, 1711.2, 1588.6, 1872.3, 1680.8, 1660.8, 1755.4]

Name the reported speed of sound value associated with the compound CCCC[N+](CCCC)(CCCC)Cc1ccccc1.[Cl-] [benzyltributylammonium chloride] + OCCOCCOCCO 1585.4

src = the NIST ThermoML archive (doi:10.1021/acs.jced.8b00213)
